Biological target: D(2) dopamine receptor (Homo sapiens, UniProt P14416)
Sequence (P14416 whole entry): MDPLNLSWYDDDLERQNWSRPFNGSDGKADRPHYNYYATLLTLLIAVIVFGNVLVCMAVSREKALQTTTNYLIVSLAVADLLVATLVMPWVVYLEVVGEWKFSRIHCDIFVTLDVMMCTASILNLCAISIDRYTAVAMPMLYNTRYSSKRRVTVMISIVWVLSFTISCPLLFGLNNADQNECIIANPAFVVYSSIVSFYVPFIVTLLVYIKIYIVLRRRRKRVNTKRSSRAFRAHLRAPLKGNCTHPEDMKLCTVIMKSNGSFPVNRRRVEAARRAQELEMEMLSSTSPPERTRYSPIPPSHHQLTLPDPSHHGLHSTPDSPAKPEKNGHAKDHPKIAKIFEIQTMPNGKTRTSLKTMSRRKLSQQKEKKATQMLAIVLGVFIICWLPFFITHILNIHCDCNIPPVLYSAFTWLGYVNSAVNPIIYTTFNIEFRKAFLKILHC
Test: Displacement of [3H]spiperone from low-affinity state of human dopamine D2S receptor transfected in HEK293 cells after 2 hrs by scintillation counting analysis
Format: cell-based
Settings: read-out: Ki
pKi: −log10 of the molar value.
Metric: pKi

(A) Oc1ccc2c(c1)O[C@@H](CNCCN1CCN(c3ccc(OCCF)cc3)CC1)CC2
(B) Oc1ccc2c(c1)O[C@@H](CNCCN1CCN(c3ccc(I)cc3)CC1)CC2
Exercise: Compare A and B by numeric pKi and name the larger one. Your answer should be the label attached to the chosen record.
Solution: B
(B: 6.88, A: 6.60)

(I) Oc1ccc2c(c1)O[C@@H](CNCc1ccccc1I)CC2
(II) Oc1ccc2c(c1)O[C@@H](CNCc1ccc(OCCCCF)cc1)CC2
Exercise: Recorded pKi values differ for I and II ; which one is higher? Pick one; state its label.
Solution: II
(II: 7.03, I: 6.78)

----------
Biological target: D(1A) dopamine receptor (Homo sapiens, UniProt P21728)
Sequence (P21728 whole entry): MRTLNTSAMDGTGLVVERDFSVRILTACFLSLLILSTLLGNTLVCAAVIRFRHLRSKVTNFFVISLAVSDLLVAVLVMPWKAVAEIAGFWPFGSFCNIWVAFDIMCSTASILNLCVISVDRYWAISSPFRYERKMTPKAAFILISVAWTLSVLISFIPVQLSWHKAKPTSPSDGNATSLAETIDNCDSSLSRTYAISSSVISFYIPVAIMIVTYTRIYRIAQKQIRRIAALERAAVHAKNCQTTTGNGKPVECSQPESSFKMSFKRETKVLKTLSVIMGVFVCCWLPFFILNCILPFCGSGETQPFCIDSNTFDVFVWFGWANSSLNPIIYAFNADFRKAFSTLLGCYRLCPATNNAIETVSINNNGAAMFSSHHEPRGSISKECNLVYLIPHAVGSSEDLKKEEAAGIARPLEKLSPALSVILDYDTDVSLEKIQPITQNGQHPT
Assay: Displacement of [3H]SCH23390 from human dopamine D1 receptor transfected in HEK293 cells after 2 hrs by scintillation counting analysis
Assay type: cell-based
Conditions: read-out: pKi (converted)
Metric: Ki (µM)

In [3]: df
Out[3]:
                           substance_smiles                              study_system  metric  readout_number
0  Oc1ccc2c(c1)O[C@@H](CNCCN1CCN(c3ccc(I)cc3)CC1)CC2  D(1A) dopamine receptor (Homo sapiens, UniProt P21728)      Ki            3.89

(I) CCCCCCNC[C@H]1CCc2ccc(O)cc2O1
(II) Oc1ccc2c(c1)O[C@@H](CNCc1ccccc1I)CC2
Exercise: Looking only at measured Ki, which entry is lower, I or II ? Answer by stating the label of the chosen item.
Solution: II
(II: 0.417 µM, I: 10.5 µM)

----------
Target: D(2) dopamine receptor (Homo sapiens, UniProt P14416)
Assay: Displacement of [3H]spiperone from low-affinity state of human dopamine D2L receptor transfected in HEK293 cells after 2 hrs by scintillation counting analysis
Assay type: cell-based
Conditions: read-out: Ki
Metric: Ki (nM)

In [3]: df
Out[3]:
                           substance_smiles  metric  readout_number
0  Oc1ccc2c(c1)O[C@@H](CNCc1ccc(OCCCCF)cc1)CC2      Ki            80.5

(a) Oc1ccc2c(c1)O[C@@H](CNCc1cccc(I)c1)CC2
(b) Oc1ccc2c(c1)O[C@@H](CNCc1ccccc1OCCCCF)CC2
Exercise: Of the pair a and b , name the member with the lesser recorded Ki. Indicate your choice by writing its label.
Solution: a

Recorded values, source ChEMBL document CHEMBL3112461.
